TARGET ENTITY: SASPase-FLG2 interaction (Homo sapiens, UniProt Q53RT3, D212A)
Construct: made in house; host or cells: E. coli BL21DE3
Sequence (Q53RT3 85-343 D212A): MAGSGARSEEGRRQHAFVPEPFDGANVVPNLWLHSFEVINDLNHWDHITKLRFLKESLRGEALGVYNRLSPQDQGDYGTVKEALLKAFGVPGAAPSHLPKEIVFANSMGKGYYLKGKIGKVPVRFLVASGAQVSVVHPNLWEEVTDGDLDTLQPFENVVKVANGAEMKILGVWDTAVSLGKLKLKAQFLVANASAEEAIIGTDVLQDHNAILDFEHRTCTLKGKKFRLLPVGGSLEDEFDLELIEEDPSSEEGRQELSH
METHOD DESCRIPTION: HTRF (FRET) screening of agents that modulate the SASPase-FLG2 interaction
Format: binding
RECORDED CONDITIONS: SASPase85-343D212A-GST 50 nM, FLG22-213-S-His-THX 200 nM, PBS pH 7.4; read-out: IC50, inhibition of the SASPase-FLG2 interaction
pIC50: −log10 of the molar value.
ASSAY ENDPOINT: pIC50

Which measured pIC50 value corresponds to Cc1ccc(C(=O)Oc2cccc(C3C4=C(Nc5c3c(=O)n(C)c(=O)n5C)c3ccccc3C4=O)c2)cc1 (stereo not shown) ?
~5.70
